B1: mouse secretagogin [mouse] / helix-b of the Habc domain of mouse syntaxin-4 [mouse] (parent)
chain 1: MDNARRKTPARLDAACFWQIWQRFDKEEKGYIRETELDAFFDHLLAKSGTEDTLMEENVQKVKEQLMTSHNVSKEGRILMKELASMFLSEDENFLLFFRLETPLDNSVEFMQIWRKYDADSSGFISAAELCNFLRDLFLHHKKNISEAELEEYTSTMMKIFDKNKDGRLDLNDLARILALQENFLLQFKMDASSTEERKRDFEKIFAHYDVSKTGALEGPEVDGFVKDMMELVQPSISGVDLDKFREILLRHCDVNKDGKIQKSELALCLGLKINP
chain 2: TPLPEESMKQGLQNLREEIKQLGREVRAQLKAIEPQKE

variants of: B1; test: ITC; set-up: reference not given here; details: with helix-b of the Habc domain of mouse syntaxin-4 [mouse]
value type: ratio to parent

(I) chain 1 L270A
(II) chain 1 M229E
(III) chain 1 R198A
(IV) chain 1 M229A
(V) chain 1 V233A
Please arrange the 5 variants above from largest to smallest ratio to parent value. A ranking is expressed here by listing the labels in the requested order.
I, II, IV, III, V
(I: 39.8, II: 12.8, IV: 3.98, III: 1.99, V: 0.31)
